- SYSTEM NAME: CCR5 (UniProt P51681)
- PROTOCOL NOTES: cell-based or functional assay
MEASURED QUANTITY: CCR5 sequestration (%) (% of control surface CCR5)
Just the number.

Query :: Param item = RANTES derivative: signature sequence SEQ ID NO: 20 fused to positions 10-68 of native RANTES (SEQ ID NO: 1) (ligand) QGPLSGQSTPCCFAYIARPLPRAHIKEYFYTSGKCSNPAVVFVTRKNRQVCANPEKKWVREYINSLEMS ; retrieve measured CCR5 sequestration (%) (% of control surface CCR5).
Result :: 71

Query :: I have this binder here, RANTES derivative: signature sequence SEQ ID NO: 32 fused to positions 10-68 of native RANTES (SEQ ID NO: 1) (ligand) QGPPGQWSQVCCFAYIARPLPRAHIKEYFYTSGKCSNPAVVFVTRKNRQVCANPEKKWVREYINSLEMS , and I need its recorded CCR5 sequestration (%) (% of control surface CCR5).
Result :: 5

Query :: Which measured CCR5 sequestration (%) (% of control surface CCR5) value corresponds to RANTES derivative: signature sequence SEQ ID NO: 6 fused to positions 10-68 of native RANTES (SEQ ID NO: 1) (ligand) QGPPLMWLQTCCFAYIARPLPRAHIKEYFYTSGKCSNPAVVFVTRKNRQVCANPEKKWVREYINSLEMS ?
Result :: 3

Query :: Need CCR5 sequestration (%) (% of control surface CCR5), item RANTES derivative: signature sequence SEQ ID NO: 67 fused to positions 10-68 of native RANTES (SEQ ID NO: 1) (ligand) QGPPLMSAQSCCFAYIARPLPRAHIKEYFYTSGKCSNPAVVFVTRKNRQVCANPEKKWVREYINSLEMS
Result :: 15

Query :: Which CCR5 sequestration (%) (% of control surface CCR5) value belongs to RANTES derivative: signature sequence SEQ ID NO: 4 fused to positions 10-68 of native RANTES (SEQ ID NO: 1) (ligand) QGPPLMWLQVCCFAYIARPLPRAHIKEYFYTSGKCSNPAVVFVTRKNRQVCANPEKKWVREYINSLEMS ?
Result :: 3
